Where do these numbers come from? They come from PubChem BioAssay AID686978.

test: qHTS for Inhibitors of human tyrosyl-DNA phosphodiesterase 1 (TDP1): qHTS in cells in absence of CPT; details: DT40 Tdp1-/- hTDP1 cells, no CPT, ATP luminescence, 48 h; also: nearly all actives have a fitted effect of over 55% in size
In all, about 420,000 compounds went through this assay and about 64,000 (15%) were called active. Roughly 27% stayed inconclusive and do not appear here. Calls follow the shape of the dose curve; as a rule, active = well fitted inhibition curve with a large enough effect; inconclusive = small, poorly fitted or top-dose-only effect; inactive = flat fitted curve, though single readings scatter. The list is a sample of the results.
Respond using exactly one of the listed classes: TRUE = active, FALSE = inactive

Here are 4 compounds together with their reported answers.
> print(dat)
                    structure.smiles.string  assigned.label
1  O=C(NCCN1CCOCC1)c1cc(-c2cccs2)nc2ccccc12           FALSE
2  O=C(CN(c1cccc(Cl)c1)S(=O)(=O)c1ccccc1)NN=C1CCCC1           FALSE
3  N#Cc1cc([N+](=O)[O-])ccc1NC(=O)COC(=O)c1cnccn1           FALSE
4  CCCCN(C)CCCNC(=O)c1cc(-c2cccs2)nc2ccccc12            TRUE

Lab note: next compound to report on.
**Query** // return assay outcome for CCCCCC(=O)N1C[C@H](O)[C@@H](n2cc(COC(=O)c3ccccc3)nn2)C[C@@H]1c1ccc(C)cc1
**Result** TRUE
